Tested on: OVCAR-3 ovarian
Assay: NCI tumour cell line growth inhibition, 48 h; in the data active = GI50 below about 0.43 µM; inactive = the rest
Mark one answer only. Choices: active, inactive

Please review the entries below; each comes with its answer.
INSERT INTO results (compound, class_assignment) VALUES
  ('O=NN(CC(=O)NNc1ccccc1)CC(=O)NNc1ccccc1', 'inactive'),
  ('Cc1cc(N)c2cc(NC(=O)/C=C\c3ccccc3Cl)ccc2n1', 'inactive'),
  ('COc1cc(/C=C2\CC3C4CC=C5C[C@@H](N6CCCC6)CC[C@]5(C)C4CC[C@]3(C)[C@H]2OC(C)=O)ccc1OCCCn1ccnc1 (stereo not given in full)', 'active'),
  ('CC(C)(C)c1ccc(OCCCCCCCN2CCNCC2)cc1', 'inactive');

Then this compound:
**Q:** Hi team, can someone confirm the assay call for O=C(/C=C/c1cccc(Cl)c1)c1ccccc1 ?
**A:** inactive

----------
System: SK-MEL-2 melanoma
Assay: NCI tumour cell line growth inhibition, 48 h
metric_name: TGI

**Q:** Reported TGI for c1ccc(CSCCC(SCc2ccccc2)SCc2ccccc2)cc1 : what is it?
**A:** > 10 µM

**Q:** Next molecule up: CCn1cnc(C[C@H](NC(=O)[C@@H](NC(=O)Nc2cc(C(F)(F)F)cc(C(F)(F)F)c2)C(C)(C)C)C(=O)OC)c1
**A:** > 10 µM

----------
Reported TGI is given for each of the following molecules.
Tested on: ACHN renal
Assay: NCI tumour cell line growth inhibition, 48 h

Look over these answered cases.
INSERT INTO assay_data (molecule, experimental_result) VALUES
  ('CC1Nc2ccccc2NC1C=C(C#N)C#N (stereo not drawn)', '32.7 µM'),
  ('CN(C)Cc1nsc(N(C)C)n1', '> 100 µM'),
  ('NC(N)=NS(=O)(=O)c1ccc(NCc2cccc3c(=O)c4ccc(Cl)cc4oc23)cc1', '> 13.6 µM');

**Q:** Reported TGI for NC(=O)c1c(-c2ccccc2)c(-c2ccccc2)cc2c(=O)c3ccccc3[nH]c12 : what is it?
**A:** 37.7 µM

**Q:** Next molecule up: CCOC(=O)c1nc2sc(Cl)cn2c1/C=N/N=C(N)N
**A:** 53.4 µM

----------
Test system: MCF7 breast
Test: NCI tumour cell line growth inhibition, 48 h
metric_name: TGI

Look over these answered cases.
INSERT INTO results (molecule, metric_name, experimental_result) VALUES
  ('O=C1c2c[n+](Cc3ccccc3)ccc2-c2nc3ccccc3c3ccnc1c23', 'TGI', '0.89 µM'),
  ('C=C1C(=O)OC2/C=C(CO)/C=C\C3OC3(C)CC(OC(=O)/C(C)=C/COC(C)=O)C12 (stereo not given)', 'TGI', '16.4 µM'),
  ('COc1ccc(-n2c(C)nc3ccc(NC4OCC(OC(C)=O)C(OC(C)=O)C4OC(C)=O)cc3c2=O)cc1 (stereo not given)', 'TGI', '> 100 µM'),
  ('CCOC(=O)c1nc2sc(Cl)cn2c1/C=N/N=C(N)N', 'TGI', '> 58.7 µM');

**Q:** Reported TGI for O=NN(CC(=O)NNc1ccccc1)CC(=O)NNc1ccccc1 : what is it?
**A:** > 100 µM

----------
Reported TGI is given for each of the following compounds.
Tested on: SNB-78 CNS
Experiment: NCI tumour cell line growth inhibition, 48 h

Look over these answered cases.
INSERT INTO measurements (compound, experimental_result) VALUES
  ('O=C1C[C@@H]2[C@@H](C=CC23CCCC3)N1O', '> 100 µM'),
  ('O=C1CC2=CCCC2O1 (stereo unspecified)', '> 100 µM'),
  ('Cc1ccccc1-c1cc(=O)c2cc(C)c(C)c(C(=O)O)c2o1', '> 100 µM'),
  ('COC(=O)N1C=CC2=C(C)C3Nc4ccccc4C3C(C)=C2C1 (stereo unspecified)', '3.66 µM'),
  ('Nc1ccc(C(=O)NN2C(=O)C(Cl)C2c2ccc(O)cc2)cc1 (stereo unspecified)', '44.6 µM'),
  ('COc1cc(Br)c(/C=N/N=C(\N)NO)cc1OC', '> 100 µM'),
  ('CCOC(=O)C(c1ccsc1)P(=O)(OCC)OCC (stereo unspecified)', '76.9 µM'),
  ('CC1=CC2=C(C=O)C(=O)[C@](C)(O)[C@@H](O)C2=CO1', '> 100 µM'),
  ('CC1(C)CCOC(Sc2ccccc2)C1 (stereo unspecified)', '> 100 µM'),
  ('CC1=C(C(=O)Nc2cc(F)c(F)cc2F)C(c2ccc(N(C)C)cc2)C(C(=O)Nc2cc(F)c(F)cc2F)=C(C)N1', '65.4 µM');

Now look at this entry.
**Q:** Reported TGI for CCOC(=O)N1C/C(=C\c2ccc(N(C)C)cc2)C(=O)/C(=C/c2ccc(N(C)C)cc2)C1 : what is it?
**A:** > 100 µM

----------
Test system: HCC-2998 colon
Assay: NCI tumour cell line growth inhibition, 48 h
Reported GI50 is given for each of the following molecules.

**Q:** Reported GI50 for O=[N+]([O-])c1cc2c(ccc3ccccc32)o1 : what is it?
**A:** 252 nM

**Q:** Next molecule up: O=C1c2c[n+](Cc3ccccc3)ccc2-c2nc3ccccc3c3ccnc1c23
**A:** 609 nM

**Q:** Next molecule up: C[C@H]1CCC/C=C/[C@@H]2C[C@H](O)C[C@H]2[C@H](O)C(O)C(O)C(=O)O1 (stereo not given in full)
**A:** 2150 nM

**Q:** Next molecule up: Nc1ccccc1SC(CC(=O)c1ccccc1)c1c(Cl)cccc1Cl (stereo not given)
**A:** 2610 nM

**Q:** Next molecule up: Nc1ncnc2c1ncn2C1OC(F)(COS(N)(=O)=O)C(O)C1O (stereo not given)
**A:** > 100000 nM

**Q:** Next molecule up: O=C(N/N=C/c1coc2ccc(Cl)cc2c1=O)c1cc(O)c(O)c(O)c1
**A:** 15900 nM

----------
Test system: RXF 393 renal
Experiment: NCI tumour cell line growth inhibition, 48 h
Reported TGI is given for each of the following molecules.

INSERT INTO measurements (molecule, experimental_result) VALUES
  ('CCCCCCCCC#CCCCCCCC(F)C(=O)O (stereo not given)', '> 100 µM');

**Q:** Reported TGI for Cc1ccnn1CCc1ccc(Cl)cc1Cl : what is it?
**A:** 82.9 µM

**Q:** Next molecule up: CC(C)OC(=O)NNc1c(Cl)cc(Cl)cc1Cl
**A:** 69.5 µM

**Q:** Next molecule up: CC(C)(C)c1ccc(OCCCCCCCN2CCNCC2)cc1
**A:** 3.37 µM

----------
Reported TGI is given for each of the following compounds.
System: NCI-H226 lung
Experiment: NCI tumour cell line growth inhibition, 48 h

**Q:** Reported TGI for c1ccc([P+](Cc2ccc(C[P+](c3ccccc3)(c3ccccc3)c3ccccc3)s2)(c2ccccc2)c2ccccc2)cc1 : what is it?
**A:** > 100 µM

----------
Test system: MDA-N
Experiment: NCI tumour cell line growth inhibition, 48 h
metric_name: TGI

Look over these answered cases.
INSERT INTO assay_data (molecule, metric_name, experimental_result) VALUES
  ('O=C(Cn1c(C(=O)/C=C/c2ccc(Cl)c(Cl)c2)nc2ccccc21)c1ccccc1', 'TGI', '47.2 µM'),
  ('O=C(c1ccsc1)c1nccc2c1cnc1ccccc12', 'TGI', '> 100 µM'),
  ('CCOC1OC(CO[Si](C)(C)C(C)(C)C)C(O)CC1n1ccc(=O)[nH]c1=O (stereo unspecified)', 'TGI', '> 100 µM'),
  ('COc1cc2c(cc1OCCCN1CCOCC1)N=C[C@@H]1CCCN1C2=O', 'TGI', '97.5 µM'),
  ('CS(C)(=O)=Nn1c(=O)n2n(c1=O)[C@H]1CC[C@@H]2C1', 'TGI', '> 100 µM');

**Q:** Reported TGI for NC(N)=N/N=C/c1c(Cl)nc2n1CCS2 : what is it?
**A:** > 100 µM

**Q:** Next molecule up: CCCCCCCCCCCC(=O)OCC(O)CO (stereo unspecified)
**A:** > 100 µM

**Q:** Next molecule up: CC(C)(C(=O)N(C(=O)N1CCN(c2ccccc2)CC1)S(=O)(=O)c1ccccc1)c1ccc(Cl)cc1
**A:** > 100 µM

**Q:** Next molecule up: Nc1nc2cc(COc3ccc(C(=O)O)cc3)ccc2nc1-c1ccccc1
**A:** > 10 µM

**Q:** Next molecule up: COc1ccc2c(c1)C1Oc3ccccc3CC1CO2 (stereo unspecified)
**A:** > 100 µM

**Q:** Next molecule up: CC(C)OC(=O)NNc1c(Cl)cc(Cl)cc1Cl
**A:** > 100 µM

----------
Test system: HL-60(TB) leukemia
Assay: NCI tumour cell line growth inhibition, 48 h
Reported GI50 is given for each of the following compounds.

Look over these answered cases.
INSERT INTO results (compound, experimental_result) VALUES
  ('O=C1CC[C@@H]2[C@H]3CCC(=O)c4c3c(c3cccc(O)c3c4O)O[C@@]23C(=O)c2cccc(O)c2C(O)=C13', '> 100 µM'),
  ('Nc1ccccc1SC(CC(=O)c1ccccc1)c1c(Cl)cccc1Cl (centres undefined)', '3.36 µM'),
  ('CCOC(=O)c1c(C)n(Cc2ccc(Cl)cc2Cl)c2c1cc(O)c1[nH]c(Cc3ccccc3)nc12', '2.27 µM'),
  ('N#C/C(=C\c1ccccn1)c1nc2ccccc2o1', '15.3 µM'),
  ('CC(=O)OC1C(C)OC(Oc2c(-c3ccc(O)cc3)oc3cc(O)cc(O)c3c2=O)C(O)C1OC(C)=O (centres undefined)', '23.9 µM'),
  ('CC(C)(C)c1ccc(OCCCCCCCN2CCNCC2)cc1', '1.45 µM'),
  ('CCOC(=O)c1nc2sc(Cl)cn2c1/C=N/N=C(N)N', '26.1 µM'),
  ('C[C@H]1CCC/C=C/[C@@H]2C[C@H](O)C[C@H]2[C@H](O)C(O)C(O)C(=O)O1 (some centres undefined)', '0.251 µM');

**Q:** Reported GI50 for COc1ccc(C(=O)c2no[n+]([O-])c2C(=O)c2ccc(OC)cc2)cc1 : what is it?
**A:** 2.08 µM

**Q:** Next compound up: CCn1cnc(C[C@H](NC(=O)[C@@H](NC(=O)Nc2cc(C(F)(F)F)cc(C(F)(F)F)c2)C(C)(C)C)C(=O)OC)c1
**A:** > 10 µM

**Q:** Next compound up: O=C1/C(=C/c2ccc([N+](=O)[O-])s2)Oc2ccc(Br)cc21
**A:** 0.487 µM

**Q:** Next compound up: C=CC(=O)N1CCN(c2nc(OC[C@@H]3CCCN3C)nc3c(F)c(-c4nc(N)cc(C)c4C(F)(F)F)c(Cl)cc23)[C@@H](C)C1
**A:** 2.91 µM

**Q:** Next compound up: CC[C@@]1(O)C(=O)OCc2c1cc1n(c2=O)Cc2cc3c(N)c(OC)ccc3nc2-1
**A:** 0.0266 µM

**Q:** Next compound up: CCOC(=O)c1ccc(N[C@@H]2c3cc4c(cc3C(c3cc(OC)c(O)c(OC)c3)[C@H]3C(=O)OCC32)OCO4)cc1 (some centres undefined)
**A:** 0.0114 µM
